Can you tell me Max MFI for the items I'm about to list?
assayed-system: T1, human CDH6 with EC4 removed, on HEK293T cells (HEK293T-hCDH6-EC4 deletion) (human, UniProt P55285 54-790)
T1 construct: Signal peptide not removed here
T1 sequence: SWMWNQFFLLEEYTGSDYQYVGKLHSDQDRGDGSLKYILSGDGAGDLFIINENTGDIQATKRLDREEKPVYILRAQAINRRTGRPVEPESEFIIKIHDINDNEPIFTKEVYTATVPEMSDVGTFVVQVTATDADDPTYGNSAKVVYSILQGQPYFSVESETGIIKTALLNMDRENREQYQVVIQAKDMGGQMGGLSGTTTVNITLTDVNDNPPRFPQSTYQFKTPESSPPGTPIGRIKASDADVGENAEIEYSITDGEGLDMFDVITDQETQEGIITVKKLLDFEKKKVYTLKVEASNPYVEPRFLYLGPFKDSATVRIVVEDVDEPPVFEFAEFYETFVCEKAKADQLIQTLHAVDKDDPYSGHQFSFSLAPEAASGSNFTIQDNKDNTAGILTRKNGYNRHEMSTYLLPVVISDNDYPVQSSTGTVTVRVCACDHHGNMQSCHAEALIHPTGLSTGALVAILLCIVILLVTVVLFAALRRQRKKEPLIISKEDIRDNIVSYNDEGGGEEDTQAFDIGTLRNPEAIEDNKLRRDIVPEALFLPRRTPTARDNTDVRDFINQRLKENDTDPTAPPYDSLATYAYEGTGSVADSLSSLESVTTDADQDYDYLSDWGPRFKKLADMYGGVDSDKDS
measurement-protocol: FACS, HEK293T-hCDH6-EC4 deletion cells
Numbers only, in MFI.

Examples with their reported Max MFI follow.
# binder, units-text, Max MFI
data = [
    ("CHI-CDH6-12 (antibody, human IgG1, kappa, V domains shown, also called CH1-CDH6-12; chimeric antibody of murine CDH6-12) VH: EVNLVESGGGLVQPGDSLTLSCSASGFTFTDYYMSWVRQFPGKALEWLALIRNKANSYTTEYSASVKGRFTISRDNSQSILYLQMNALRAEDSATYYCARDSYYSHDGFAYWGQGTLVTVSA VL: DIVLTQSPASLAVSLGQRATISCRASKSVSTSSYTYMHWYQQKPGQPPKLLIKFASYLESGVPARFSGSGSGTDFTLNIHPVEEEDAATYYCQHSREFPFTFGTGTKLEIKR", "MFI", 16600),
    ("CHI-CDH6-3 (antibody, human IgG1, kappa, V domains shown, also called CH1-CDH6-3; chimeric antibody of murine CDH6-3) VH: QVQLQQPGAELVKPGASVKLSCKASGYTFTSYWIHWVKQRPGQGLEWIGEINPSNGVTNCNENFKSKATLTVDKSSSTAYMQLSSLTSEDSAVYYCTIPNLLWWYFDVWGAGTTVTVSS VL: DIQMTQSPASLSVSVGETVTITCRASENIYSNLAWYQQKQGKSPQLLVYEATNLADGVPSRFSGSGSGTQYSLKINSLQSEDFGSYYCQHFWGTLWTFGGGTKLEIKR", "MFI", 16800),
]

Now examine the next entry.
Reported Max MFI, binder NOV0712 (antibody, human IgG1, kappa, V domains shown, Positive control, variable regions from WO2018212136A1; also called positive control anti-human CDH6 antibody) VH: QVQLLESGGGLVQPGGSLRLSCAASGFTFSSHGMHWVRQAPGKGLEWVSVISGSGSNTGYADSVKGRFTISRDNSKNTLYLQMNSLRAEDTAVYYCARQWGSYAFDSWGQGTLVTVSS VL: DIQMTQSPSSLSASVGDRVTITCRASQSISSYLNWYQQKPGKAPKLLIYAVSTLQSGVPSRFSGSGSGTDFTLTISSLQPEDFATYYCQQSGTFPPTTFGQGTKVEIKR : ____
20600
